System: HCT-116 colon
ASSAY EXPLANATION: NCI tumour cell line growth inhibition, 48 h
This listing pairs compounds with measured TGI.

[ask] Request the reported TGI associated with COc1ccc(N=Nc2c(N)nn(C)c2N)cc1
[reply] > 100 µM

---

System: SF-539 CNS
ASSAY EXPLANATION: NCI tumour cell line growth inhibition, 48 h
This listing pairs compounds with measured TGI.

Example compounds with recorded TGI:
O=C(Cc1nc2ccc([N+](=O)[O-])cc2[nH]c1=O)C(=O)Nc1ccccc1[N+](=O)[O-] : > 100 µM
CCOC(=O)C(NC(=O)CC)(Nc1ccc(F)cc1F)C(F)(F)F (centres undefined) : > 100 µM

[ask] Request the reported TGI associated with CCOC(=O)/C(=C\NC(C)(C)CO)c1nc2ccccc2[nH]1
[reply] > 100 µM

[ask] Request the reported TGI associated with Cc1ccccc1C(C(=O)NC1CCCCC1)N(C(=O)CNc1ccc(C#N)cc1)c1cccc(F)c1 (centres undefined)
[reply] > 59.7 µM

[ask] Request the reported TGI associated with CC(C)(C)[Si](C)(C)OCC1OC(n2ccc(=O)[nH]c2=O)C(O[Si](C)(C)C(C)(C)C)[C@]12O[C@@H]2CO (some centres undefined)
[reply] 47.7 µM

[ask] Request the reported TGI associated with COc1ccc(N=Cc2ccc(N(CCC#N)S(=O)(=O)c3ccccc3)cc2C)cc1
[reply] > 100 µM

[ask] Request the reported TGI associated with CC(C)C(=O)c1c(C(F)(F)F)n([O-])c2ccccc2[n+]1=O
[reply] 5.17 µM

[ask] Request the reported TGI associated with O=C1/C(=C/c2ccc(O)c(O)c2)CC/C1=C\c1ccc(O)c(O)c1
[reply] 9.64 µM

[ask] Request the reported TGI associated with COc1ccccc1NC(=O)CC(=O)N1N=C(c2ccccc2)C(N=Nc2ccc(Cl)cc2)C1=O (centres undefined)
[reply] > 100 µM

---

Test system: SF-539 CNS
ASSAY EXPLANATION: NCI tumour cell line growth inhibition, 48 h
// No strictly below 20 µM in TGI; Yes otherwise

Solved entries (count: 6):
C/C=C(\C)C(=O)O[C@H]1C=CC(=O)O[C@H]1COC(=O)[C@H](C)O : Yes
CC(=O)Nc1cc2nc3n(c2cc1C)CCC3OC(C)=O (stereo not given) : Yes
COc1ccc(NC(=O)c2ccc(NC3=C(Cl)C(=O)N(Cc4ccccc4)C3=O)cc2)c(OC)c1 : Yes
O=C(CC1(O)C(=O)Nc2c(Cl)cc(Cl)cc21)c1ccc(F)cc1 (stereo not given) : Yes
O=C(O)c1ccc([C@@H]2C(=O)N(O)[C@@H]3C=CC[C@@H]32)cc1 : Yes
CC(C)(C)c1cc(-c2nc3ccc(N4CCN(CCO)CC4)cc3[nH]2)cc(C(C)(C)C)c1O : No

[ask] Dear colleague, could you confirm whether CC(C)Cc1ccc(C(C)C(=O)NCc2ccc(Cn3c(=O)sn(CCCI)c3=O)cc2)cc1 (stereo not given) has TGI at or above 20 µM?
[reply] No

[ask] Dear colleague, could you confirm whether C=C1CC2(CCS(=O)(=O)c3ccccc32)OC1=O (stereo not given) has TGI at or above 20 µM?
[reply] No

[ask] Dear colleague, could you confirm whether O=C(Nc1cccc(C(=O)NCCCO)c1)/C(=C/c1ccccc1)NC(=O)c1ccccc1 has TGI at or above 20 µM?
[reply] Yes

[ask] Dear colleague, could you confirm whether COc1cc(CNc2c3ccccc3nc3ccccc23)cc(OC)c1OC has TGI at or above 20 µM?
[reply] No
